Sourced from patent US20070190145A1

Test summary: physchem
Experimental context: pH 3.68, aqueous buffer

Compound: OCCN(CCO)c1nc(N2CCCCC2)c2nc(N(CCO)CCO)nc(N3CCCCC3)c2n1 [Dipyridamole]
solubility (mg/mL): 0.93

----------
Test summary: Solubilities of weakly basic drugs in organic acid buffers
Experimental context: pH 2.14, aqueous buffer, Solubility of Ondansetron Hydrochloride, fumaric acid 2.5 mg/mL; start pH 2.26, end pH 2.14

Compound: Cc1nccn1CC1CCc2c(c3ccccc3n2C)C1=O.Cl.O.O (racemic) [Ondansetron Hydrochloride]
solubility: 27 mg/mL

----------
Test summary: Solubilities of weakly basic drugs in organic acid buffers
Experimental context: pH 4.05, aqueous buffer, Solubility of Ondansetron Hydrochloride, fumaric acid 0.01 mg/mL; start pH 3.64, end pH 4.05

Compound: Cc1nccn1CC1CCc2c(c3ccccc3n2C)C1=O.Cl.O.O (racemic) [Ondansetron Hydrochloride]
Readout units: mg/mL
solubility: 26.1

----------
Test summary: physchem
Experimental context: pH 6.28, aqueous buffer

Compound: OCCN(CCO)c1nc(N2CCCCC2)c2nc(N(CCO)CCO)nc(N3CCCCC3)c2n1 [Dipyridamole]
solubility: 6 µg/mL

----------
Test summary: Solubilities of weakly basic drugs in organic acid buffers
Experimental context: pH 3.7, aqueous buffer, Solubility (mg/mL) of Clonazepam in Fumaric Acid, pH of buffer 3.7

Substance smiles: O=C1CN=C(c2ccccc2Cl)c2cc([N+](=O)[O-])ccc2N1
solubility, µg/mL: 9.8

----------
Test summary: pH-dependent solubility
Format: physicochemical
Experimental context: simulated gastric fluid; in 0.1N HCl
Property name: solubility

Molecule: OCCN(CCO)c1nc(N2CCCCC2)c2nc(N(CCO)CCO)nc(N3CCCCC3)c2n1 [Dipyridamole]
Property name: solubility
Observed value: ~1000 µg/mL

----------
Test summary: Solubilities of weakly basic drugs in organic acid buffers
Experimental context: pH 3.49, aqueous buffer, Solubility of Ondansetron Hydrochloride, fumaric acid 0.05 mg/mL; start pH 3.19, end pH 3.49

Compound: Cc1nccn1CC1CCc2c(c3ccccc3n2C)C1=O.Cl.O.O (racemic) [Ondansetron Hydrochloride]
solubility, mg/mL: 26

----------
Test summary: Solubilities of weakly basic drugs in organic acid buffers
Experimental context: pH 2.3, aqueous buffer, solubility, fumaric acid buffer at pH 2.3 (higher acid concentration)
Property name: solubility

Substance smiles: O=C1CN=C(c2ccccc2Cl)c2cc([N+](=O)[O-])ccc2N1
Property name: solubility
Observed value: ~11.6 µg/mL

----------
Test summary: physchem
Experimental context: pH 3.42, aqueous buffer
Property name: solubility

Substance smiles: OCCN(CCO)c1nc(N2CCCCC2)c2nc(N(CCO)CCO)nc(N3CCCCC3)c2n1
Observed value: 1800 µg/mL

----------
Test summary: Solubilities of weakly basic drugs in organic acid buffers
Experimental context: pH 4.8, aqueous buffer, Solubility (mg/mL) of Clonazepam in Fumaric Acid, pH of buffer 4.8

Substance smiles: O=C1CN=C(c2ccccc2Cl)c2cc([N+](=O)[O-])ccc2N1
Readout units: µg/mL
solubility: 9.5

----------
Test summary: Solubilities of weakly basic drugs in organic acid buffers
Experimental context: pH 6.8, aqueous buffer, solubility, fumaric acid buffer at pH 6.8 (lower acid concentration)

Substance smiles: O=C1CN=C(c2ccccc2Cl)c2cc([N+](=O)[O-])ccc2N1
solubility: ~6.9 µg/mL

----------
Test summary: physchem
Experimental context: pH 2.98, aqueous buffer
Property name: solubility

Substance smiles: OCCN(CCO)c1nc(N2CCCCC2)c2nc(N(CCO)CCO)nc(N3CCCCC3)c2n1
Observed value: 6240 µg/mL
